# Assay target: Potassium voltage-gated channel subfamily KQT member 2 (Rattus norvegicus) (UniProt O88943)
# Sequence (O88943 whole entry, looked up): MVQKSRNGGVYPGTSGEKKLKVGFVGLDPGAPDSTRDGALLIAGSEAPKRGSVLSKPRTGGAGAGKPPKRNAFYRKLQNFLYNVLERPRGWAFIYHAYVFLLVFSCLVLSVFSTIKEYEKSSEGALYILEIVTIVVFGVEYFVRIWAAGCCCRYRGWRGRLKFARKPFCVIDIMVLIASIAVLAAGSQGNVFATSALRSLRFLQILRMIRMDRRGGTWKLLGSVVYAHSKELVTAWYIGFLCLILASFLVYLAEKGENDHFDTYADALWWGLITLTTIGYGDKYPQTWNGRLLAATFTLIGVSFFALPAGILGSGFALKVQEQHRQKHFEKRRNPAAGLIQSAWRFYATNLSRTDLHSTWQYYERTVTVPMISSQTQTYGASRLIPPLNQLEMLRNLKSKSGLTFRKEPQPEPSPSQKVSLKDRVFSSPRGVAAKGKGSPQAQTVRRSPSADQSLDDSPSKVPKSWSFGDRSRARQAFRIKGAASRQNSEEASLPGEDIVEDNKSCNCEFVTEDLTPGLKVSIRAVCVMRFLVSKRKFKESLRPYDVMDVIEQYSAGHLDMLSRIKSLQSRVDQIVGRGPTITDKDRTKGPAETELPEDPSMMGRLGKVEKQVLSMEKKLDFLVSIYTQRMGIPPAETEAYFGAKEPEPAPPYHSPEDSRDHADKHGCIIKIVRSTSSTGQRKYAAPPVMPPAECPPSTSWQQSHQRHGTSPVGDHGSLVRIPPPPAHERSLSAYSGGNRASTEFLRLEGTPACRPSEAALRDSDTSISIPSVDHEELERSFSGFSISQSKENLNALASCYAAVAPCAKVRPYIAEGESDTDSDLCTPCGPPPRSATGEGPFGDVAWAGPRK
# Protocol description: rat KCNQ2 channel potentiation, selectivity assay for KCNQ1 potentiator project, KCNQ2-CHO-K1 cells (AID 493009);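 further: assay conditions were tuned for KCNQ1 rather than KCNQ2 modulators; signal is max minus min fluorescence divided by baseline after thallium stimulus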
# Condition set: FluxOR thallium flux fluorescence, at 10 µM, scaled: buffer 0, activator control 100
Active and inactive are the calls of the source.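 How the source made its calls: active means mean duplicate potentiation above the buffer control mean plus 5 SD of buffer wells; inactive means the rest.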
Outcome codes: label 1 (active), label 0 (inactive)

Compound	Class assignment
O=C(Nc1nnc(-c2ccc3c(c2)CCCC3)o1)c1ccc(Cl)cc1Cl	label 1
CCC(C)c1ccccc1NC(=S)NC(=O)c1ccco1 (configuration not stated)	label 1
COc1ccccc1C(=O)NNC(=O)C(=O)Nc1ccc(C)cc1	label 1
CC1=C(C)/C(=N\OS(=O)(=O)c2ccccc2)C=CC1=O	label 0
CC(=O)CC1(OC(C)=O)C(=O)N(C)c2ccccc21 (configuration not stated)	label 0
S=C1N(c2ccccc2)C(c2ccccc2)N2CCCN12 (configuration not stated)	label 0
Cc1ccccc1NC1=NC(=S)N(c2ccccc2)C12CCCCC2	label 1
S=C(NCCc1ccccc1)N1CCn2cccc2C1c1cccnc1 (configuration not stated)	label 0
Cc1cc(SCNC(=O)c2ccccc2)ncn1	label 0
Cc1ccc(C)c(/C=N/n2cc(-c3ccccc3)[nH]c2=S)c1	label 0
COc1cccc2sc(Nc3nnc(-c4ccc(F)cc4)o3)nc12	label 1
CCn1nnc2cc(C(=O)Nc3cc(S(C)(=O)=O)ccc3Cl)ccc21	label 0
O=c1c(-c2ccccc2)[n+]([O-])c2ccccc2n1O	label 0
Cc1cccc(NC(=S)N/N=C(\c2ccccc2)C(C)C)c1	label 1
CCOc1ccccc1NC(=O)C(=O)CC(=O)c1ccc(OC)cc1	label 1
CC(=O)N(C)c1ccc(NC(=O)Cc2cccc3ccccc23)cc1	label 0
CCCN1CCC(NC(=S)Nc2cccc(Cl)c2Cl)CC1	label 0
Cc1ccc(NC2=C(NC(=O)c3ccccc3)C(=O)c3ccccc3C2=O)cc1Cl	label 0
COc1ccc(-c2nc3ccc(C(=O)NCC(OC)OC)cc3nc2-c2ccc(OC)c(OC)c2)cc1OC	label 0
Cc1ccc(NS(=O)(=O)c2ccc(C(=O)N3CC(C)CC(C)C3)cc2)cc1 (configuration not stated)	label 0
COc1ccc(C(=O)c2cc([N+](=O)[O-])ccc2N2CCOCC2)cc1	label 0
COc1ccc(OC)c(-c2cc(C(=O)N3CCN(c4ccccc4)CC3)no2)c1	label 0
COC(=O)c1sc(NC(=S)NC(=O)c2ccc(C)cc2)nc1C	label 1
CCOC(=O)C1CCN(S(=O)(=O)c2ccc3c4c2CC(=O)N4CC(C)S3)CC1 (configuration not stated)	label 0
CCOC(=O)c1c(NS(C)(=O)=O)sc2c1CCC(C)C2 (configuration not stated)	label 1
Cc1ccc(-c2nc3ncccc3o2)cc1NC(=O)c1cccnc1	label 0
O=C(O)CCCN1C(=O)/C(=C/c2ccc(-c3nc4ccccc4s3)o2)SC1=S	label 1
O=C1CCC(C(=O)N2CCSCC2)CN1Cc1cccc(C(F)(F)F)c1 (configuration not stated)	label 0
S=C(N/N=C/c1ccccc1Cl)Nc1cccc(Cl)c1Cl	label 1
Cn1ccnc1C(=O)c1cccc([N+](=O)[O-])c1	label 0
CCOC(=O)N1CCC(NC(=O)c2cc(C(=O)NCc3ccc(F)cc3)ccc2CO)CC1	label 0
O=C(NC(=S)Nc1ccccc1N1CCOCC1)c1cccc([N+](=O)[O-])c1	label 0
O=c1c2c(-c3ccco3)csc2nc(SCc2cn3cccnc3n2)n1-c1ccccc1	label 0
COc1cc(/C=C2\C(=O)N(C)C(=S)N2C)ccc1O	label 0
CC(C)CCn1c(=S)[nH]c2ncccc2c1=O	label 0
Cc1ccc(C)c(NC(=S)NNC(=O)c2cc3c(s2)CCC(C)C3)c1 (configuration not stated)	label 1
OCCN1CCN(CCCN2c3ccccc3Sc3ccc(Cl)cc32)CC1	label 0
CCn1c(SCC(=O)Nc2ccccc2F)nnc1-c1cnccn1	label 0
Cc1ccc(-c2csc(NC(=O)Cc3ccc(F)cc3)n2)o1	label 0
O=C(CCN1CCc2ccccc2CC1)c1ccc2c(c1)OCCO2	label 1
CCOc1ccc(-n2cc(-c3ccccc3)c3c(=S)nc[nH]c32)cc1	label 1
CC(/C=N/n1c(C2CCCCC2)n[nH]c1=S)=C\c1ccccc1	label 1

Data credit: PubChem BioAssay
